system: RPMI-8226 leukemia; experiment: NCI tumour cell line growth inhibition, 48 h; in the data active = GI50 below about 0.43 µM; inactive = the rest
Outcome codes: TRUE = active, FALSE = inactive

compound	assigned_class
Nc1nc(/C=C\c2ccc([N+](=O)[O-])s2)nc(N2CCCC2)n1	FALSE
COc1cc2c3c(n(C)c(=O)c2cc1OC)-c1cc2c(cc1/C3=C\CN)OCO2	TRUE
O=C(CC1(O)C(=O)N(Cc2ccccc2)c2ccc(F)cc21)c1ccc(C(=O)NCC2CCC3(CC2)OOC2(CCCCC2)OO3)cc1 (stereo not given)	TRUE
CN(C)CC[PH+](c1ccccc1)c1ccccc1.CN(C)CC[PH+](c1ccccc1)c1ccccc1.[Cl-].[Pd+2]	FALSE
COc1cc(F)ccc1-c1ncnc(Nc2cccc(CS(C)(=N)=O)c2)n1 (stereo not given)	FALSE
Cc1ncc(C(=O)Nc2ccc(CN3CCN(C)CC3)c(C(F)(F)F)c2)cc1C#Cc1cnc(N)c2ccncc12	FALSE
CNCC#Cc1c(F)ccc2c1/C(=C/c1[nH]ccc1OC)C(=O)N2	TRUE
COc1ccc(-c2nn(-c3ccc(NC(=O)c4ccc(Cl)c(Cl)c4)cc3)cc2-c2ccncc2)cc1Cl	FALSE
COc1cccc2c1C(=O)c1c(O)c3c(c(O)c1C2=O)C[C@](O)(C(=O)CO)C[C@H]3O[C@@H]1C[C@@H](NC(=O)CCCCCN(C)C2(c3ccc(F)cc3)CC3CCC2C3)[C@H](O)[C@@H](C)O1 (stereo not given in full)	FALSE
O=C1OCC2=C1C(c1cccc(Br)c1)c1cc3c(cc1N2CCO)CCC3 (stereo not given)	TRUE
